Consider the following compounds and their measured Viability (%) at different lipid concentrations, mean readings.
Test system: HepG2 cell line
Measurement Notes: In vitro toxicity study on HepG2 cell line (resazurin, viability and IC50)
Assay type: cell-based, human
Condition Summary: HepG2 cells, 50 μM lipid, 48 h post-treatment, resazurin, relative to ethanol vehicle controls
Experimental Endpoint: Viability (%) at different lipid concentrations, mean

- Compound: "CCCCCCCCCCCOC(=O)CCCCCN(CCO)CCCCCCCC(=O)OC(CCCCCCCC)CCCCCCCC [SM-102, reference compound]"
  Numeric Value: 101.4
- Compound: "CCCCCCCC/C=C\\CCCCCCCC(OCC(CCCCCCCC)SCCCCC)O[Si](C)(C)OCCCCCCN(CCO)CCO (stereo not drawn)"
  Numeric Value: 101.6
- Compound: "CCCCCCCC/C=C\\CCCCCCCCOC(=O)C(C)(C)CC(OCCCCCCCC/C=C\\CCCCCCCC)O[Si](C)(C)OCCCCCCN(CCCCO)CCCCO (stereo not drawn)"
  Numeric Value: 105.4
- Compound: "CCCCCCCCO[Si](C)(C)O[Si](C)(C)OC(CCCCCCC)OCCCCCCN(C)CCN(C)CCN(C)CCCCCCOC(CCCCCCC)O[Si](C)(C)O[Si](C)(C)OCCCCCCCC (stereo not drawn)"
  Numeric Value: 101.93
- Compound: "CCCCCCCC/C=C\\CCCCCCCCOC(=O)C(C)(C)CC(OCCCCCCCC/C=C\\CCCCCCCC)O[Si](C)(C)OCCCCCCN1CCCCC1 (stereo not drawn)"
  Numeric Value: 97.8
- Compound: "CCCCCCCCC(CCCCCC)C(=O)OCCCCCCN(CCCCO)CCCCCCOC(=O)C(CCCCCC)CCCCCCCC (stereo not drawn) [ALC-0315, reference compound]"
  Numeric Value: 91.6

* * *

System: HepG2 cell line
Measurement Notes: In vitro toxicity study on HepG2 cell line (resazurin, viability and IC50)
Assay type: cell-based, human
Condition Summary: HepG2 cells, 800 μM lipid, 48 h post-treatment, resazurin, relative to ethanol vehicle controls
Experimental Endpoint: Viability (%) at different lipid concentrations, mean

- Molecule: "CCCCCCCC/C=C\\CCCCCCCCOC(=O)C(C)(C)CC(OCCCCCCCC/C=C\\CCCCCCCC)O[Si](C)(C)OCCCCCCN(CCO)CCO (stereo not shown)"
  Numeric Value: 88.5
- Molecule: "CCCCC/C=C\\C/C=C\\CCCCCCCCO[Si](C)(C)OC(CCCCCCC/C=C\\C/C=C\\CCCCC)OCCCN(C)C (stereo not shown)"
  Numeric Value: 0.71
- Molecule: "CCCCCCCC/C=C\\CCCCCCCC(OCCCCCCCCCCCCCCCC)O[Si](C)(C)OCCCCCCN(CCO)CCO (stereo not shown)"
  Numeric Value: 99.8
- Molecule: "CCCCC/C=C\\C/C=C\\CCCCCCCCOC(CCCCCCC/C=C\\C/C=C\\CCCCC)O[Si](C)(C)OCCCCCCN1CCCCC1CO (stereo not shown)"
  Numeric Value: 47.4

* * *

Measurement Notes: LNP size, PDI and zeta potential by Dynamic Light Scattering (Method A)
Format: physicochemical
Condition Summary: LNP formulated with the lipid, DLS
Procedure: The synthesized lipids were tested in term of in vitro transfection efficacy and toxicity on HeLa cells. In order to perform the mentioned biological tests, appropriate LNPs had to be formulated from the synthesized lipids. The formulation technique was different in Method A and B. The particle size, polydispersity index (PDI) and zeta potential of resulting LNPs were determined by means of Dynamic Light Scattering technique (DLS). […]
Size (nm) less than 100 nm is yes (1); Size (nm) greater than or equal to 100 nm is no (0).

- Molecule: "CCCCCCCC/C=C\\CCCCCCCC(OCC(CCCCCCCC)SCCCCC)O[Si](C)(C)OCCCCCCN(CCO)CCO (stereo not shown) [Example 72]"
  Discrete Label: "yes (1)"
- Molecule: "CCCCCCCC/C=C\\CCCCCCCCOC(=O)C(C)(C)CC(OCCCCCCCC/C=C\\CCCCCCCC)O[Si](C)(C)OCCCCCCN(C)CCCCO (stereo not shown) [Example 91]"
  Discrete Label: "yes (1)"
- Molecule: "CCCCCCCCCCCCCCCCOC(CCCCCCCCCCCCCCC)O[Si](C)(C)OCCCCCCN(CCO)CCO (stereo not shown) [Example 49]"
  Discrete Label: "no (0)"
- Molecule: "CCCCC/C=C\\C/C=C\\CCCCCCCCOC(CCCCCCC/C=C\\C/C=C\\CCCCC)O[Si](C)(C)OCCCCCCN(C)CC(O)CO (stereo not shown) [Example 59]"
  Discrete Label: "no (0)"
- Molecule: "C#CCN(C)CCCCCCO[Si](C)(C)OC(CCCCCCC/C=C\\C/C=C\\CCCCC)OCCCCCCCC/C=C\\C/C=C\\CCCCC (stereo not shown) [Example 67]"
  Discrete Label: "no (0)"
- Molecule: "CCCCCCCC/C=C\\CCCCCCCCOC(=O)C(C)(C)CC(OCCCCCCCC/C=C\\CCCCCCCC)O[Si](C)(C)OCCCCCCN(CCCCO)CCCCO (stereo not shown) [Example 86]"
  Discrete Label: "no (0)"
- Molecule: "CCCCCCCC/C=C\\CCCCCCCCOC(CCCCCCC/C=C\\CCCCCCCC)O[Si](C)(C)OCCCCCCN(C)[C@H](CO)Cc1ccccc1 (stereo partly shown) [Example 78]"
  Discrete Label: "yes (1)"
- Molecule: "CCCCC/C=C\\C/C=C\\CCCCCCCCOC(CCCCCCC/C=C\\C/C=C\\CCCCC)O[Si](C)(C)OCCCCCCN1CCCCC1CO (stereo not shown) [Example 64]"
  Discrete Label: "no (0)"
- Molecule: "CCCCCCCC/C=C\\CCCCCCCCOC(=O)C(C)(C)CC(OCCCCCCCC/C=C\\CCCCCCCC)O[Si](C)(C)OCCCCCCN(CCO)CCO (stereo not shown) [Example 84]"
  Discrete Label: "yes (1)"
- Molecule: "CCCCC/C=C\\C/C=C\\CCCCCCCCOC(CCCCCCC/C=C\\C/C=C\\CCCCC)O[Si](C)(C)OCCCCCCN(CCCCO)CCCCO (stereo not shown) [Example 62]"
  Discrete Label: "no (0)"
- Molecule: "CCCCCCCC/C=C\\CCCCCCCCOC(=O)C(C)(C)CC(OCCCCCCCC/C=C\\CCCCCCCC)O[Si](C)(C)OCCCCCCN(C)CCO (stereo not shown) [Example 93]"
  Discrete Label: "yes (1)"
- Molecule: "CCCCC/C=C\\C/C=C\\CCCCCCCCO[Si](C)(C)OC(CCCCCCC/C=C\\C/C=C\\CCCCC)OCCCCCCN(CCO)CCO (stereo not shown) [Example 40]"
  Discrete Label: "no (0)"
- Molecule: "CCCCC/C=C\\C/C=C\\CCCCCCCC(OCCCCCCCCCCCCCCCC)O[Si](C)(C)OCCCCCCN(CCO)CCO (stereo not shown) [Example 44]"
  Discrete Label: "no (0)"
- Molecule: "CCCCC/C=C\\C/C=C\\CCCCCCCCOC(CCCCCCC/C=C\\C/C=C\\CCCCC)O[Si](C)(C)OCCCCCCN(CCO)CCN(CCO)CCCCCCO[Si](C)(C)OC(CCCCCCC/C=C\\C/C=C\\CCCCC)OCCCCCCCC/C=C\\C/C=C\\CCCCC (stereo not shown) [Example 71]"
  Discrete Label: "no (0)"
- Molecule: "CCCCC/C=C\\C/C=C\\CCCCCCCCOC(CC[C@@H](C)C1CCC2C3CCC4C[C@H](OC)CC[C@]4(C)C3CC[C@@]21C)O[Si](C)(C)OCCCCCCN(CCO)CCO (stereo partly shown) [Example 52]"
  Discrete Label: "no (0)"
- Molecule: "CCCCC/C=C\\C/C=C\\CCCCCCCCOC(CCCCCCC/C=C\\C/C=C\\CCCCC)O[Si](C)(C)OCCCCCCN(C)Cc1cn(C2[C@H](O)O[C@H](CO)[C@@H](O)[C@@H]2O)nn1 (stereo partly shown) [Example 68]"
  Discrete Label: "no (0)"
- Molecule: "CCCCC/C=C\\C/C=C\\CCCCCCCCOC(CCCCCCC/C=C\\C/C=C\\CCCCC)O[Si](C)(C)OCCCCCCN(CCO)CCO (stereo not shown) [Example 48]"
  Discrete Label: "no (0)"
- Molecule: "CCCCCCCC/C=C\\CCCCCCCCOC(=O)C(C)(C)CC(OCCCCCCCC/C=C\\CCCCCCCC)O[Si](C)(C)OCCCCCCN1CCOCC1 (stereo not shown) [Example 85]"
  Discrete Label: "yes (1)"
- Molecule: "CCCCC/C=C\\C/C=C\\CCCCCCCCOC(CCCCCCC/C=C\\C/C=C\\CCCCC)O[Si](C)(C)OCCCCCCN1CCN(CCCCCCO[Si](C)(C)OC(CCCCCCC/C=C\\C/C=C\\CCCCC)OCCCCCCCC/C=C\\C/C=C\\CCCCC)CC1 (stereo not shown) [Example 70]"
  Discrete Label: "no (0)"
